- Target or test system: T1, MotA D67K, full length (bacteriophage T4, UniProt P22915 1-211, D67K)
- T1 sequence (looked up): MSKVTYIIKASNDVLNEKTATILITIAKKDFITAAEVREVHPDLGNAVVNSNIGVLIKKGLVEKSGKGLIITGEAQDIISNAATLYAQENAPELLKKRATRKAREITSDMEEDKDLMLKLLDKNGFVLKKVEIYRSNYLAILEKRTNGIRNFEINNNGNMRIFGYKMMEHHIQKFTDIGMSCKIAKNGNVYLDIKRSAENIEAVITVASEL
- Procedure text: fluorescence polarisation
Where no end group is shown, it is not given here. The star is where a group is joined. FITC = O=C1OC2(c3ccc(O)cc3Oc3cc(O)ccc32)c2ccc(NC(=S)*)cc21
Parameter: Kd
# include the unit after the value

**Q:** Return reported Kd. Input binder: {FITC}-PSRSEVLRSFLDD (peptide, UniProt P00579 601-613, looked up) [fluorescein-tagged σ4-H5 peptide (σ^70 residues 601-613)]
**A:** 24.3 µM
